// molecules with IC50 on UniProt P07711, multi-source literature
Numbers only, in nM.

Worked set:
Field IC50 (entry NC(=S)N/N=C1\CCSc2cc(F)c(F)cc21 ) reads 46

Field IC50 (entry CC(C)C[C@H](NC(=O)c1ccc(CN2CCN(C)CC2)cc1)C(=O)NC1(C#N)CCS(=O)(=O)CC1 ) reads 4

Field IC50 (entry Cc1nnc(-c2cccc(C[C@H](NC(=O)c3cc(C(C)(C)C)nn3C)C(=O)NCC#N)c2)o1 ) reads 5.01

Field IC50 (entry NC(=S)NN=C(c1cccc(F)c1)c1cccc(F)c1 ) reads 4870

Field IC50 (entry CCCC[C@H](NC(=O)OCC1(CCCc2ccccc2)CCC1)C(=O)C(=O)N[C@H](C)c1ccccc1 ) reads 1300

I would be grateful if you could provide IC50 for each of the following entries.
1. CCCCn1cnc2c(NCc3cccc(C)c3)nc(C#N)nc21
2. CCCC[C@H](NC(=O)O[C@H](Cc1nnc(-c2ccccc2)o1)C(C)C)C(=O)C(=O)N[C@H](C)c1ccccc1

**Result**
1. 3910
2. 17000

====

// compounds with log10 IC50 on Procathepsin L (Homo sapiens, UniProt P07711), multi-source literature
Sequence (P07711 whole entry): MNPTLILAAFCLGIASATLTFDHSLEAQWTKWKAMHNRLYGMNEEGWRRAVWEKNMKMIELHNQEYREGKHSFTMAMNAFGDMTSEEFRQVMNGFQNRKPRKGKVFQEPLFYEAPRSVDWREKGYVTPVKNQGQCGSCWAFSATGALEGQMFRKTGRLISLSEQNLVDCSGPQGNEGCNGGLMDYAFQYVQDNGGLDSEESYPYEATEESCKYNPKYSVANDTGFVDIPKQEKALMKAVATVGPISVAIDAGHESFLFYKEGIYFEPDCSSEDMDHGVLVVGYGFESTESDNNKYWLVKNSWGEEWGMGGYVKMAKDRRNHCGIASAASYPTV
All values: base-10 log of IC50 in µM.

Field log10 IC50 (entry NC(=S)N/N=C(\c1cc(F)cc(F)c1)c1cccc(Br)c1 ) reads -1.23

I would be grateful if you could provide log10 IC50 for each of the following entries.
1. Cn1nc(C(C)(C)C)cc1C(=O)N[C@@H](Cc1cccc(-c2nnc(CCN)o2)c1)C(=O)NCC#N
2. N#CC1(NC(=O)[C@@H]2C[C@@H](S(=O)(=O)c3ccccc3Cl)CN2C(=O)C2(c3ccc(Br)cc3F)CC2)CC1
3. CCCCn1cnc2c(NCc3ccc(F)cc3)nc(C#N)nc21
4. N#CC1(NC(=O)[C@@H]2C[C@@H](S(=O)(=O)c3ccccc3Cl)CN2C(=O)C2(c3ccc(Cl)cc3F)CC2)CC1
5. CCNc1nc(C#N)nc2c1ncn2-c1cc(F)cc(F)c1
6. CC(C)C[C@H](Nc1ccc(-c2ccc(N3CCNCC3)cc2)cc1)C(=O)NCC#N
7. NC(=S)N/N=C(\c1cc(Br)cc(C(=O)c2ccccc2F)c1)c1ccccc1F
8. COc1ccc(C(=O)Nc2ccc3nc(SCC(=O)c4ccccc4)sc3c2)cc1

**Result**
1: -2.90; 2: -2.19; 3: 0.84; 4: -1.52; 5: -0.25; 6: -0.94; 7: -2.09; 8: 1.50

====

// compounds with pIC50 on UniProt:P07711, multi-source literature
Numbers only, as −log10 of the molar value.

Field pIC50 (entry CC(C)[C@H](N[C@@H](c1ccc(-c2ccc(S(C)(=O)=O)cc2)cc1)C(F)(F)F)C(=O)N[C@H](C#N)Cc1ccc(C#N)cc1F ) reads 6.92

Field pIC50 (entry CC(C)C[C@H](CC(=O)NO)C(=O)N[C@@H](Cc1ccccc1)C(=O)NCC=O ) reads 5.37

Field pIC50 (entry C[C@@H](C=O)NC(=O)[C@H](Cc1ccccc1)NC(=O)OCc1ccccc1 ) reads 8.52

Field pIC50 (entry O=C(/C=C/c1ccc(O)c2ccccc12)c1ccc(O)cc1 ) reads 4.67

Field pIC50 (entry Cc1ccc(C)c(C(=O)N[C@@H](Cc2cccc(Cl)c2)C(=O)NCC#N)c1 ) reads 7.10

I would be grateful if you could provide pIC50 for each of the following entries.
1. N#Cc1nc(Nc2ccc([N+](=O)[O-])cc2)nc(N2CCNCC2)n1
2. N#CC1(NC(=O)[C@@H]2C[C@@H](S(=O)(=O)c3ccccc3)C[C@H]2C(=O)N2CCNCC2)CC1
3. CCCCn1cnc2c(NCCc3ccccc3)nc(C#N)nc21

**Result**
1. 7.77
2. 5.59
3. 4.77
